experiment description: NCI Yeast Anticancer Drug Screen. Data for the CLN2oe strain (AID 163);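 further: 0% = growth of vehicle-only control cultures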
condition label: S. cerevisiae CLN2oe strain, at 33.0 µM, active compounds read high
Protocol: Growth inhibition of yeast strains with defined genetic alterations is measured as a screen for potential anti-cancer activity. Selected strains with alterations in DNA damage repair or cell cycle control were exposed to compounds and growth inhibition was measured relative to vehicle treated controls. The strain used in this assay is CLN2oe
Compounds without any hit were thinned out: in the full panel of roughly 79,000, 15% have a hit.
readout: growth inhibition (%)
Number only, in %; omit the unit.

As a guide, the following entries are already answered.
compound	growth inhibition (%)
Nc1ccccc1CC(O)C(=O)O (stereo not given)	25
NC1=NS(=O)(=O)N=C(N)C1=Cc1ccc([N+](=O)[O-])o1	13

Looking up CC(CC(C)(C)[N+](C)(C)C)[N+](C)(C)C (stereo not given) , I found its growth inhibition recorded as -6

The reported value for CN(C)C[C@H]1CC[C@@H](CN(C)C)C1=O in terms of growth inhibition is 29

Field growth inhibition (entry Cc1ccc(CCC2=CCCc3c2ccc2ccccc32)cc1 ) reads -5

====

experiment description: NCI Yeast Anticancer Drug Screen. Data for the rad50 strain (AID 155);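 further: 0% = growth of vehicle-only cultures of the same strain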
condition label: S. cerevisiae rad50 strain growth inhibition; at 50.0 µM; active compounds read high
About 79,000 compounds went through this panel and 15% of them were active in at least one assay; those are over-represented in the sample as a whole.
readout: growth inhibition (%)
Please give a number only; it is taken to be in %.

Answered examples (3):
line notation	readout	unit descriptor	measurement
COc1cc2c(cc1[N+](=O)[O-])C(=O)C(Br)(Br)CCC2	growth inhibition	%	91.2
C/C(=N\NC(=S)SCc1ccccc1)c1ccccn1	growth inhibition	%	88
O=C(/C=C/c1cccc(Br)c1)c1cccs1	growth inhibition	%	88.2

Now look at this entry.
// growth inhibition lookup, compound = COc1ccc(Br)c(C(=O)Sc2nnnn2-c2cccc(Cl)c2)c1 , result: 87.6

====

experiment description: NCI Yeast Anticancer Drug Screen. Data for the rad52 strain (AID 147);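 further: 0% = growth of vehicle-treated control cultures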
condition label: S. cerevisiae rad52 mutant growth inhibition; at 3.7 µM; active compounds read high
The panel holds about 79,000 compounds, 15% with a hit somewhere; the sample as a whole holds those more often.
readout: growth inhibition (%)
Please state the figure in %; there is no need to write the unit.

In the examples that follow, each entry is paired with its recorded growth inhibition.
compound	unit descriptor	growth inhibition
O=C1CSC(/C=C/c2ccccc2)N1c1ccc(-c2ccc(-n3c(-c4ccccc4)nc4ccccc4c3=O)cc2)cc1 (configuration not stated)	%	1
[N-]=[N+]=NC1=C(c2ccccn2)C(=O)c2cccc3cccc1c23	%	4
Cc1cc(I)ccc1N	%	4
S=C(Nc1ccc(Cl)cc1)SC1CCCCC1	%	24
CCCCN(CCCC)CCSc1ccc(Cl)cc1	%	-13

Recorded result, CC[C@@]1(O)C(=O)OCc2c1cc1n(c2=O)Cc2cc3c(N)cccc3nc2-1 , growth inhibition: 79

Notebook: O=C1c2ccccc2C(=O)c2c(NC3CCCCC3)ccc(Nc3ccc(S(=O)(=O)O)cc3)c21 , growth inhibition read as -5

====

experiment description: NCI Yeast Anticancer Drug Screen. Data for the mgt1 strain (AID 153)
condition label: S. cerevisiae mgt1 mutant growth inhibition; at 100.0 µM; active compounds read high
The panel holds about 79,000 compounds, 15% with a hit somewhere; the sample as a whole holds those more often.
Items are presented alongside their recorded growth inhibition.
Field: numeric (%). Do not append units.

compound	growth inhibition, %
COC(=O)c1ccc([N+](=O)[O-])c(O)c1	98

The recorded growth inhibition for O=[N+]([O-])c1ccc2c(c1)C(N1CCN(CCO)CC1)Cc1ccc(F)cc1S2 (stereo unspecified) is 34

growth inhibition recorded for this compound, Cn1c(=O)c2ccccc2c2ccccc21 , is 51

Per the records, this compound ( CC(=O)Oc1cc(-c2cc(OC(C)=O)c(OC(C)=O)c3ccccc23)c2ccccc2c1OC(C)=O ) has growth inhibition equal to 82

Recorded result, CCCCCCCCC/C=C/C=C/C(=O)NCC(=O)NC1C(O)C(O)C(Nc2ncnc3nc[nH]c23)OC1C(O)CO (stereo unspecified) , growth inhibition: 39

Per the record, O=C1C2C(C(=O)N1c1ccc(OCc3ccccc3)cc1)C1c3ccccc3C2C2CCCCN21 (stereo unspecified) has growth inhibition of 95

// FC(F)(F)c1nc2nc(Cl)c(Cl)nc2n1CCCN1CCOCC1 : growth inhibition value = 34
